Cited source for all entries: the supplement of paper PMC10567573

Entries and their protein stability index values follow.
B1: DFFB (parent)
chain: KLNCDPSRIYKPQTRLKRKQPVRK

variants of: B1; experiment: protein stability index of a GFP-peptide fusion (GPS, HEK-293T) (PSI 1-6); higher = more stable; conditions: c terminus: a fixed tail appended;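 also: lentivirally expressed fusions sorted by FACS into six bins by GFP to DsRed ratio, PSI derived from sequencing read proportions per bin multiplied by bin number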
metricName: protein stability index

[[record]]
variantdescription = "L2C"
reportedmeasurement = 3.55

[[record]]
variantdescription = "D5C"
reportedmeasurement = 4.16

[[record]]
variantdescription = "P12T"
reportedmeasurement = 3.69

[[record]]
variantdescription = "Q20Y"
reportedmeasurement = 2.91

[[record]]
variantdescription = "K24G"
reportedmeasurement = 3.23

[[record]]
variantdescription = "K1S"
reportedmeasurement = 2.92

[[record]]
variantdescription = "S7W"
reportedmeasurement = 3.78

[[record]]
variantdescription = "K17D"
reportedmeasurement = 2.17

[[record]]
variantdescription = "P21G"
reportedmeasurement = 3.49

[[record]]
variantdescription = "T14W"
reportedmeasurement = 3.95

[[record]]
variantdescription = "V22N"
reportedmeasurement = 3.62

[[record]]
variantdescription = "Y10K"
reportedmeasurement = 3.21

[[record]]
variantdescription = "L2A"
reportedmeasurement = 4.27

[[record]]
variantdescription = "K17W"
reportedmeasurement = 3.19

[[record]]
variantdescription = "L16T"
reportedmeasurement = 4.05

[[record]]
variantdescription = "N3R"
reportedmeasurement = 4.24

[[record]]
variantdescription = "R8G"
reportedmeasurement = 3.83

[[record]]
variantdescription = "K24P"
reportedmeasurement = 3.32

[[record]]
variantdescription = "K17N"
reportedmeasurement = 3.21

[[record]]
variantdescription = "T14I"
reportedmeasurement = 3.34

[[record]]
variantdescription = "N3K"
reportedmeasurement = 4.07

[[record]]
variantdescription = "R18M"
reportedmeasurement = 3.68

[[record]]
variantdescription = "R15S"
reportedmeasurement = 3.96

[[record]]
variantdescription = "K17G"
reportedmeasurement = 4.14

[[record]]
variantdescription = "L2N"
reportedmeasurement = 4.5

[[record]]
variantdescription = "R23K"
reportedmeasurement = 3.01

[[record]]
variantdescription = "R23I"
reportedmeasurement = 3.53

[[record]]
variantdescription = "K19P"
reportedmeasurement = 3.25

[[record]]
variantdescription = "P21I"
reportedmeasurement = 3.16

[[record]]
variantdescription = "Y10Q"
reportedmeasurement = 2.75

[[record]]
variantdescription = "P6D"
reportedmeasurement = 4.05

[[record]]
variantdescription = "T14F"
reportedmeasurement = 2.68

[[record]]
variantdescription = "D5K"
reportedmeasurement = 3.8

[[record]]
variantdescription = "K17F"
reportedmeasurement = 3.45

[[record]]
variantdescription = "R18G"
reportedmeasurement = 3.28

[[record]]
variantdescription = "L2D"
reportedmeasurement = 4.89

[[record]]
variantdescription = "S7P"
reportedmeasurement = 3.19

[[record]]
variantdescription = "L2Q"
reportedmeasurement = 4.16

[[record]]
variantdescription = "K11Y"
reportedmeasurement = 3.94

[[record]]
variantdescription = "R18L"
reportedmeasurement = 3.62

[[record]]
variantdescription = "C4H"
reportedmeasurement = 3.5

[[record]]
variantdescription = "S7Y"
reportedmeasurement = 2.73

[[record]]
variantdescription = "I9R"
reportedmeasurement = 2.91

[[record]]
variantdescription = "Q13S"
reportedmeasurement = 3.44

[[record]]
variantdescription = "P12L"
reportedmeasurement = 2.86

[[record]]
variantdescription = "P6L"
reportedmeasurement = 3.12

[[record]]
variantdescription = "K1G"
reportedmeasurement = 3.13

[[record]]
variantdescription = "N3P"
reportedmeasurement = 3.97

[[record]]
variantdescription = "L16A"
reportedmeasurement = 3.34

[[record]]
variantdescription = "N3I"
reportedmeasurement = 2.89

[[record]]
variantdescription = "K24E"
reportedmeasurement = 3.99

[[record]]
variantdescription = "L16G"
reportedmeasurement = 4.16

[[record]]
variantdescription = "K17A"
reportedmeasurement = 2.98

[[record]]
variantdescription = "L2H"
reportedmeasurement = 2.95

[[record]]
variantdescription = "L16W"
reportedmeasurement = 3

[[record]]
variantdescription = "P21R"
reportedmeasurement = 3.31

[[record]]
variantdescription = "D5P"
reportedmeasurement = 3.25

[[record]]
variantdescription = "R8A"
reportedmeasurement = 3.84

[[record]]
variantdescription = "R8T"
reportedmeasurement = 2.81

[[record]]
variantdescription = "T14N"
reportedmeasurement = 3.58

[[record]]
variantdescription = "R15H"
reportedmeasurement = 3.59

[[record]]
variantdescription = "R18T"
reportedmeasurement = 3.96

[[record]]
variantdescription = "R23D"
reportedmeasurement = 3.83

[[record]]
variantdescription = "T14S"
reportedmeasurement = 3.19

[[record]]
variantdescription = "P6Y"
reportedmeasurement = 3.5

[[record]]
variantdescription = "D5G"
reportedmeasurement = 3.35

